tested on: HOP-62 NSCLC; test: NCI tumour cell line growth inhibition, 48 h
Assign yes (1) whenever TGI does not fall below 30 µM; assign no (0) whenever it does.

Solved cases below.
| molecule | qualitative-label |
| --- | --- |
| NCCOc1ccccc1/C=C1\c2ccccc2-c2ccc([N+](=O)[O-])cc21 | no (0) |
| CC(=O)ON1C(=O)c2cccc3cccc(c23)C1=O | yes (1) |
| CC(/C=C/c1ccccc1)=N\NC(N)=S | yes (1) |
| C/C(=N\NC(=S)N1CCCCCCCCCCCC1)c1ccccn1 | no (0) |

Query string: Textbook exercise: given the entry COc1ccc(-c2cc(-c3cc(Cl)cc(Br)c3O)[nH]c(=O)n2)cc1 , state whether its TGI is greater than or equal to 30 µM.
Result string: no (0)

Query string: Textbook exercise: given the entry CN(C)CCn1c(=O)c2ccc3c4c(nn3CCN(C)C)c3cc([N+](=O)[O-])ccc3n(c1=O)c24 , state whether its TGI is greater than or equal to 30 µM.
Result string: no (0)

----------
Exercise: for every item that follows, state its recorded TGI.
system: COLO 205 colon; experiment: NCI tumour cell line growth inhibition, 48 h

As a guide, the following entries are already answered.
| molecule | result |
| --- | --- |
| CC(C)(C)OC(=O)c1ccc(NCC2=CC(=O)C=CC2=O)cc1 | 7.21 µM |
| CC(C)CC(Nc1c(O)ccc2ccccc12)C(=O)O (configuration not stated) | > 100 µM |
| Cc1cccc(N2C(=O)C(=O)C(c3nc4ccccc4s3)/C(=N/NC(=S)NN)C2=O)c1C (configuration not stated) | > 100 µM |
| Oc1cccc2cc(Br)cnc12 | 97.5 µM |
| CC(C)(C)c1cc(OCc2nnc3sc(=S)[nH]n23)c(Cl)cc1OCc1nnc2sc(=S)[nH]n12 | > 100 µM |

Please state TGI for every molecule in the list that follows.
1. Cc1ccc(C(SCC(N)C(=O)O)(c2ccccc2)c2ccccc2)cc1 (configuration not stated)
2. Cc1ccc(NC(=S)SCCC(=O)O)cc1

Result string:
["0.95 µM", "> 100 µM"]

----------
// values below are GI50; system is U251 CNS

As a guide, the following entries are already answered.
| compound | system-name | GI50 |
| --- | --- | --- |
| Cc1[nH]nc2c1N=C(c1ccccc1F)c1cc(C(N)=O)ccc1N2 | U251 CNS | 0.71 µM |
| CC(=O)C1=C(C)N(C)C2(O)C=CC(=O)C3=C(O)c4ccccc4C(=O)C312 (stereo not given) | U251 CNS | 14 µM |
| COc1cc(-c2cc(/C=C/C(=O)c3ccc(Cl)c(Cl)c3)[nH]n2)cc(OC)c1OC | U251 CNS | 8.7 µM |
| CCN(CC)CCN(Cc1ccc(F)cc1)c1ccc(CO)c(Cl)c1 | U251 CNS | 22.8 µM |

Let us examine a further case.
Query string: Query: GI50; subject: N#Cc1c(N)nc(N)nc1N[C@H](c1nc2c(F)ccc(Cl)c2c(=O)n1-c1cccnc1)C1CC1
Result string: 14.7 µM

----------
tested on: SW-620 colon; experiment: NCI tumour cell line growth inhibition, 48 h
metric: TGI

| molecule | TGI |
| --- | --- |
| O=C1c2ccccc2CC12Cc1ccccc1C2 | > 100 µM |
| COc1ccc(/C=C/C(=O)CC(=O)/C=C/c2ccc(OC)cc2)cc1 | > 100 µM |
| CC(/C=C/c1ccccc1)=N\NC(N)=S | > 100 µM |
| O=c1oc2ccc(Cl)cc2cc1-c1cn2ccccc2n1 | > 100 µM |
| NCCCCC(=O)c1cccnc1 | > 100 µM |
| Cc1c(N/C=C(\C#N)C(=O)c2ccc(Cl)cc2)c(=O)n(-c2ccccc2)n1C | > 100 µM |
| O=C(O)C1(Cc2ccc3c(c2)CCC3)Cc2ccccc2C1 | > 100 µM |
| CCOC(=N)CC(=O)Nc1cccc(Cl)c1 | > 100 µM |
| Cn1c2ccccc2c2c3[nH][nH]c(=O)c3c3c4ccccc4[nH]c3c21 | 14.3 µM |
| O=S(=O)([O-])[O-].[Cl-].[NH2-].[NH2-].[NH2-].[NH2-].[Ru+3].c1ccncc1 | > 100 µM |

Please state TGI for every molecule in the list that follows.
1. CCCCC(=O)N/N=C/c1c(O)ccc2ccccc12
2. Cc1[nH]c(-c2nc3ccccc3[nH]2)c(C)c1C(=O)NC(C)C1CCCCC1 (stereo not given)
3. O/N=C(\CC(O)(C(F)(F)F)C(F)(F)F)c1cccc(Cl)c1
4. N#Cc1c(O)c(N=Nc2ccc(Cl)cc2)c(=O)n2c1[nH]c1ccccc12
5. O=S1(=O)CCCS(=O)(=O)C(c2ccccc2)=C1c1ccccc1
6. CCOC(=O)[C@H]1Nc2ccc([N+](=O)[O-])cc2C2c3ccccc3CC21 (stereo not given in full)

Result string:
1. > 100 µM
2. 18.3 µM
3. > 100 µM
4. > 100 µM
5. > 100 µM
6. 41.6 µM

Please state TGI for every molecule in the list that follows.
1. C[C@]1(Cn2ccnn2)C(C(=O)O)N2C(=O)CC2S1(=O)=O (stereo not given in full)
2. CC(=O)C(CN(C)C)C(c1ccccc1)c1c(O)c2ccccc2oc1=O (stereo not given)

Result string:
1: > 100 µM; 2: > 100 µM

Please state TGI for every molecule in the list that follows.
1. Cc1ccc(-c2cc(=O)c3cc(C)c(C)c(C(=O)O)c3o2)cc1N
2. Cc1cc(C(=O)NC(CCC(=O)O)C(=O)O)sc1CCC1CNc2nc(N)[nH]c(=O)c2C1 (stereo not given)
3. CN[C@@H](C)[C@H](N)c1ccccc1
4. NC(=O)N/N=C(/Cc1nc2ccc(C(=O)c3ccccc3)cc2[nH]c1=O)C(=O)Nc1ccc(C(F)(F)F)cc1[N+](=O)[O-]
5. CCOC(=O)C1=C(C)N(NC(N)=O)C(C)(O)C12CCOC2=O (stereo not given)
6. COC(=O)C1C=NNC1C(=O)OC (stereo not given)
7. NCCSCc1ccccc1Cl
8. Cc1cc(=O)[nH]c(NNC(C#N)c2c(O)ccc3ccccc23)n1 (stereo not given)

Result string:
["> 100 µM", "> 100 µM", "> 100 µM", "> 100 µM", "> 100 µM", "> 100 µM", "> 100 µM", "29.9 µM"]

Please state TGI for every molecule in the list that follows.
1. COC(=O)N/N=C(/CCC(=O)Nc1ccc(C)c(C)c1)CC(=O)C(C)(C)C
2. CC12CO[C@@](C)(CC(S(=O)(=O)c3ccccc3)C1)O2 (stereo not given in full)
3. Cc1ccc(C2=C(c3ccccc3)C(c3ccccc3)Oc3ccc(C)cc32)cc1 (stereo not given)

Result string:
1. > 100 µM
2. > 100 µM
3. 13.2 µM

Query string: // map COc1ccc2c(c1)[n+]([O-])c(-c1ccc(C)cc1)c(N)[n+]2[O-] to recorded TGI (system: SW-620 colon)
Result string: > 100 µM

----------
system: ACHN renal; assay: NCI tumour cell line growth inhibition, 48 h
Exercise: for every item that follows, state its recorded TGI.
Numbers only, in µM.

As a guide, the following entries are already answered.
| compound | system-name | numeric-value |
| --- | --- | --- |
| Cc1cc(=O)[nH]c(NNC(C#N)c2c(O)ccc3ccccc23)n1 (configuration not stated) | ACHN renal | 13 |
| CC(CNCCCNCCNCCCNCO)[N+](=O)[O-] (configuration not stated) | ACHN renal | 30.3 |
| NC(=O)/C=c1/c2ccccc2n2nc3ccccc3c12 | ACHN renal | 29.1 |
| C=CC/C(=C\COP(=O)(OCc1ccc([N+](=O)[O-])o1)N(C)CCCCCl)CC/C=C(\C)CCC=C(C)C (configuration not stated) | ACHN renal | 30.2 |
| O=C1N[C@@H]2c3c(Br)sc(Br)c3C(=O)[C@@H]2O1 | ACHN renal | 3.48 |

Please state TGI for every compound in the list that follows.
1. C=CC(Br)(CBr)CCC(Br)C(C)(C)Cl (configuration not stated)
2. CCCCN(CCCC)CCC(O)c1cc2c(Cl)cc(Cl)cc2c2cc(C(F)(F)F)ccc12 (configuration not stated)
3. COc1ccc(-c2cc(-c3cc(Cl)cc(Br)c3O)[nH]c(=O)n2)cc1
4. CC(C)CC(Nc1c(O)ccc2ccccc12)C(=O)O (configuration not stated)
5. CC(C)C(C/C=C1/CC(CO)(COC(=O)c2ccccc2)OC1=O)C(C)C (configuration not stated)
6. COc1ccc(/C=C2\CN(Cc3cn(CCNc4ccnc5cc(Cl)ccc45)nn3)C/C(=C\c3ccc(OC)c(OC)c3)C2=O)cc1OC
7. CN1CCN(c2nc(NCCCNc3ccnc4cc(Cl)ccc34)c3ccccc3n2)CC1

Result string:
1: 6.07; 2: 25.6; 3: 27.7; 4: 76; 5: 28.2; 6: 19.9; 7: 13.6
